# Tested on: HCT-116 colon
# ASSAY_REMARKS: NCI-60 one-dose screen, 48 h
# CONDITION_LABEL: 10 µM unless noted
Compounds without any hit were thinned out: in the full panel of roughly 83,000, 20% have a hit. Activity calls are given as the source filed them. Rule for the calls: active = growth percent below 10; inactive = the rest.
Please reply with one of these outcomes: active, inactive

Sample answers from the record:
- COMPOUND: "CCc1cccc2c3c(sc12)C(c1ccc(OC)cc1)C(C#N)=C(/N=C/c1ccc(Cl)cc1)O3 (stereo not given)"
  CLASS_NAME: "inactive"
- COMPOUND: "O=C(Nc1cccc(Cl)c1)Nc1nc2ccc([N+](=O)[O-])cc2o1"
  CLASS_NAME: "active"
- COMPOUND: "O=C(O)c1ccc(-n2cc(CNc3cc(F)c(F)c(F)c3)c(-c3cccc(F)c3)n2)cc1"
  CLASS_NAME: "inactive"
- COMPOUND: "COc1c(N2CC3CCCNC3C2)c(F)cc2c(=O)c(C(=O)N/N=C/c3ccc(F)cc3)cn(C3CC3)c12 (stereo not given)"
  CLASS_NAME: "inactive"

Shifting focus to the compound that follows.
// return assay outcome for CCNC(=O)N1CCc2cc(OC)c(OCCc3ccc(OC)nc3)cc2C1c1ccc(C)cc1C (stereo not given) active
